system: HCT-116; experiment: NCI tumour cell line growth inhibition, 48 h
The source made the active and inactive calls. Rule as the data show it: active = GI50 up to about 1.1 µM and inactive = higher.
Select the matching outcome among true (1) = active, false (0) = inactive

[[record]]
molecule = "CC1(C)Oc2ccc3c(=O)cc(-c4cccs4)oc3c2C1C(=O)O (centres undefined)"
assigned_label = "false (0)"

[[record]]
molecule = "CC1OC(OC2C(O)C(O)C(O)C(O)C2O)C(N)CC1NC(=N)C(=O)O (centres undefined)"
assigned_label = "false (0)"

[[record]]
molecule = "CCOc1cc(/C=N/c2nc3cc4sc(/N=C/c5ccc(O)c(OCC)c5)nc4cc3s2)ccc1O"
assigned_label = "false (0)"


Problem: Called result for O=C1CN2Cc3cc(N4CCOCC4)ccc3N=C2N1
Solution: false (0)

Problem: Another molecule: COc1cc(/C=N/NC(=O)c2ccc(NC(C)=O)cc2OC)ccc1O
Solution: false (0)

Problem: Try this molecule next: COCCN(CCNC(=O)c1cccc2c(N)c3cccc(C)c3nc12)CCOC
Solution: true (1)

Problem: Can you handle CN(C)CCNc1ccc2nnn3c4ccc(O)cc4c(=O)c1c23 next?
Solution: false (0)

Problem: Now give it for O=C(c1c(F)c(F)c(F)c(F)c1F)N1CCN(C(=O)c2c(F)c(F)c(F)c(F)c2F)C1=S too.
Solution: false (0)

Problem: Next up: CCC1(C)NC(c2cnccn2)=NN1c1ccc(Cl)cc1 (centres undefined)
Solution: false (0)
